Assay Target: GRK2 (Homo sapiens, UniProt P25098)
Sequence (P25098 whole entry): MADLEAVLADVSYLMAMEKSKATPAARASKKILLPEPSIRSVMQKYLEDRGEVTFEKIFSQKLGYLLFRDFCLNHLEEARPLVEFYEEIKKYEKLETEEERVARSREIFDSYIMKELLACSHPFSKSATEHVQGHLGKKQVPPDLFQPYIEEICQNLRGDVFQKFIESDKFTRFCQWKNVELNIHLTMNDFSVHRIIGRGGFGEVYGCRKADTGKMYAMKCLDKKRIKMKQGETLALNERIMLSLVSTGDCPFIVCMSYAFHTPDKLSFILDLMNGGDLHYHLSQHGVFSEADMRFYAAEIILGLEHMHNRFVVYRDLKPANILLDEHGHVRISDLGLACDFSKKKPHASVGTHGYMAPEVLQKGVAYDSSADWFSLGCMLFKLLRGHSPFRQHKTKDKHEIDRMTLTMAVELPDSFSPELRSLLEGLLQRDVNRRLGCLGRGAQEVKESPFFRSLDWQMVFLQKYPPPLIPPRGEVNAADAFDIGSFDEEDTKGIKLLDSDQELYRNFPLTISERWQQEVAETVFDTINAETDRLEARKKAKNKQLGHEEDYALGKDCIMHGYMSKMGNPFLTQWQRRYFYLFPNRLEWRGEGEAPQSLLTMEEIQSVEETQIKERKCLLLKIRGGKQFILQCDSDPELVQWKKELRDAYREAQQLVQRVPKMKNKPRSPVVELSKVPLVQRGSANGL
Test Method Notes: biochemical
Settings: GRK2 IC50 (μM), 10 nM GRK2; 10 uM ATP
Consider the following partition of reported IC50 into named classes: zone 1 (below 0.03 µM), zone 2 (0.03 µM to below 0.8 µM), zone 3 (0.8 µM or more)

Please classify: COc1cccc(C(C2CCS(=O)(=O)CC2)n2cnc3ccc(-c4cn[nH]c4)cc3c2=O)c1 (stereo not drawn)
zone 3

Sort into band: COc1cccc(Cn2cnc3ccc(-c4cn[nH]c(=O)c4)cc3c2=O)c1
zone 3

Lab note: which band did O=c1c2cc(-c3cccnc3)ccc2ncn1Cc1cccc(Cl)c1 land in?
zone 3

For the record COc1cccc(C(CO)n2cnc3ccc(-c4cn[nH]c4)cc3c2=O)c1 (stereo not drawn) , report the class its IC50 corresponds to.
zone 1

Sort O=c1c2cc(-c3cn[nH]c3)ccc2ncn1Cc1cccc2c1OCO2 into one of the categories.
zone 2

Which IC50 category applies to O=c1c2cc(-c3cn[nH]c3)ccc2ncn1Cc1cccc(OCc2ccccc2)c1 here?
zone 2

The entry to classify is COc1cccc(Cn2cnc3ccc(-c4c[nH]c5ncccc45)cc3c2=O)c1 ; which class holds it?
zone 2

Kindly state the category for this compound: CC(c1cccc(C(=O)NCc2ccc(F)cc2)c1)n1cnc2ccc(-c3cn[nH]c3)cc2c1=O (stereo not drawn)
zone 1

Where would CC(c1cccc(O)c1)n1cnc2ccc(-c3cn[nH]c3)cc2c1=O (stereo not drawn) land among the classes by reported IC50?
zone 1

Which IC50 category applies to COc1cccc(Cn2cnc3ccc(-c4ccnc(N)n4)cc3c2=O)c1 here?
zone 2

Form field 'band' for COc1cccc(Cn2cnc3ccc(-c4ccnc5[nH]ccc45)cc3c2=O)c1
zone 3

Categorize the following entry: COc1cccc(Cn2c(C)nc3ccc(-c4cn[nH]c4)cc3c2=O)c1
zone 1

Could you tell me which band COc1cccc(Cn2cnc3ccc(-c4cn[nH]n4)cc3c2=O)c1 belongs to?
zone 2

Could you place CC(=O)c1cccc(Cn2cnc3ccc(-c4cn[nH]c4)cc3c2=O)c1 in its proper category? Many thanks.
zone 2

Form: Item = O=C(NCc1ccc(F)cc1)c1cccc(-n2cnc3ccc(-c4cn[nH]c4)cc3c2=O)c1 ; Class = ?
zone 3

Dear colleague, I would appreciate it if you could identify the bin for O=C(NCc1ccc(F)cc1)c1cccc(Cn2cnc3ccc(-c4cn[nH]c4)c(F)c3c2=O)c1 and reply at your convenience.
zone 1

Class for COc1cccc(Cn2cnc3ccc(-c4nn[nH]n4)cc3c2=O)c1 ?
zone 3
